# credit: patent US11053282B2

# assay_target: polyclonal human IgG
# assay_overview: Adsorption isotherm of peptoid affinity resins against polyclonal human IgG
# measurement_conditions: affinity constant from hyperbola fit of adsorption isotherm; peptoid conjugated to chromatographic resin; IgG in PBS, 30 minutes; read-out: Kd × 10^−6
*1 amine or outer side, *2 acyl side, *3 side chain or, on linkers, in order; H or OH if unused. Where a SMILES comes first, the peptide text is derived from it. [ ]: non-standard residue; d: D form. NGly(CH2(3-pyridyl)) = O=C(O)CNCc1cccnc1; Cit = NC(=O)NCCC[CH](N)C(=O)O; Cysteamide = C(CS[*:3])N[*:1]; Nphe = O=C(O)CNCc1ccccc1
Catalogue of Kd readings, one per entry.
Note: unit µM is implicit; provide only the numeric part.

Lookup: Write down Kd measured for item NC(=O)NCCCC(NC(=O)CN(Cc1ccccc1)C(=O)CNCc1cccnc1)C(=O)NC(CCCNC(N)=O)C(=O)N(CC(=O)NCCS)Cc1cccnc1 (centres unmarked) [Ligand 12-65-8] (H-[NGly(CH2(3-pyridyl))][Nphe][Cit][Cit][NGly(CH2(3-pyridyl))]-Cysteamide; configuration not given here)
Found: 3.6

---
Lookup: Write down Kd measured for item NC(=O)NCCCC(NC(=O)CN(Cc1ccccc1)C(=O)CNCc1cccnc1)C(=O)NC(CCCNC(N)=O)C(=O)NCCS (centres unmarked) [Ligand 12-55-6] (H-[NGly(CH2(3-pyridyl))][Nphe][Cit][Cit]-Cysteamide; configuration not given here)
Found: 33

---

# assay_target: polyclonal human IgG
# assay_overview: Adsorption isotherm of peptoid affinity resins against polyclonal human IgG
# measurement_conditions: affinity constant from hyperbola fit of adsorption isotherm; peptoid conjugated to chromatographic resin; IgG in PBS, 30 minutes; read-out: Kd × 10^−6
*1 amine or outer side, *2 acyl side, *3 side chain or, on linkers, in order; H or OH if unused. Where a SMILES comes first, the peptide text is derived from it. [ ]: non-standard residue; d: D form. ξ: configuration not given here. Gly(N(CH2)2(3-indolyl)) = O=C(O)CNCCc1c[nH]c2ccccc12; NGly(CH2(3-pyridyl)) = O=C(O)CNCc1cccnc1; ξW = NC(Cc1c[nH]c2ccccc12)C(=O)O; Gly(N(CH2)3NH2) = NCCCNCC(=O)O; Cysteamide = C(CS[*:3])N[*:1]; NPrGly = CCCNCC(=O)O; ξV = CC(C)C(N)C(=O)O
measurement_name: pKd
By convention, pKd is the negative base-10 log of a molar concentration.

Lookup: Write down pKd measured for item CCCN(CC(=O)NCCS)C(=O)C(Cc1c[nH]c2ccccc12)NC(=O)CNC(=O)CN(CCCN)C(=O)CN(CCc1c[nH]c2ccccc12)C(=O)CNCc1cccnc1 (centres unmarked) [Ligand 16-83-2] (H-[NGly(CH2(3-pyridyl))][Gly(N(CH2)2(3-indolyl))][Gly(N(CH2)3NH2)]G[ξW][NPrGly]-Cysteamide)
Found: 5.28

Lookup: Write down pKd measured for item CC(C)C(NC(=O)CN(CCc1c[nH]c2ccccc12)C(=O)CNC(=O)CN(CCCN)C(=O)CN(CCc1c[nH]c2ccccc12)C(=O)CNCc1cccnc1)C(=O)NCCS (centres unmarked) [Ligand 16-83-6] (H-[NGly(CH2(3-pyridyl))][Gly(N(CH2)2(3-indolyl))][Gly(N(CH2)3NH2)]G[Gly(N(CH2)2(3-indolyl))][ξV]-Cysteamide)
Found: 5.34
